Biological target: Histone deacetylase 3/Nuclear receptor corepressor 2 (HDAC3/NCoR2) (Homo sapiens, UniProt O15379)
Sequence (O15379 whole entry): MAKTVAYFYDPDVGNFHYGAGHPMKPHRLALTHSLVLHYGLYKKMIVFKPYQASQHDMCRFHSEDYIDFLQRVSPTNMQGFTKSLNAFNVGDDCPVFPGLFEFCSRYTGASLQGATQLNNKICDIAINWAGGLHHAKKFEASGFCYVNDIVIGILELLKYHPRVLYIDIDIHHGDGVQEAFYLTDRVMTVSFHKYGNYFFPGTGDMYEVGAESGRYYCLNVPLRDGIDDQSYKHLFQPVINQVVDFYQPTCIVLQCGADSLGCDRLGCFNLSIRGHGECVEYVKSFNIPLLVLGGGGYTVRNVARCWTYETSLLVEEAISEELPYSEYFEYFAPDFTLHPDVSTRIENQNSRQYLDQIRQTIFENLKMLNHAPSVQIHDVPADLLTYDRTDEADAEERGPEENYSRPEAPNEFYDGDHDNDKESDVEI
Sequence (Q9Y618 whole entry, further chain): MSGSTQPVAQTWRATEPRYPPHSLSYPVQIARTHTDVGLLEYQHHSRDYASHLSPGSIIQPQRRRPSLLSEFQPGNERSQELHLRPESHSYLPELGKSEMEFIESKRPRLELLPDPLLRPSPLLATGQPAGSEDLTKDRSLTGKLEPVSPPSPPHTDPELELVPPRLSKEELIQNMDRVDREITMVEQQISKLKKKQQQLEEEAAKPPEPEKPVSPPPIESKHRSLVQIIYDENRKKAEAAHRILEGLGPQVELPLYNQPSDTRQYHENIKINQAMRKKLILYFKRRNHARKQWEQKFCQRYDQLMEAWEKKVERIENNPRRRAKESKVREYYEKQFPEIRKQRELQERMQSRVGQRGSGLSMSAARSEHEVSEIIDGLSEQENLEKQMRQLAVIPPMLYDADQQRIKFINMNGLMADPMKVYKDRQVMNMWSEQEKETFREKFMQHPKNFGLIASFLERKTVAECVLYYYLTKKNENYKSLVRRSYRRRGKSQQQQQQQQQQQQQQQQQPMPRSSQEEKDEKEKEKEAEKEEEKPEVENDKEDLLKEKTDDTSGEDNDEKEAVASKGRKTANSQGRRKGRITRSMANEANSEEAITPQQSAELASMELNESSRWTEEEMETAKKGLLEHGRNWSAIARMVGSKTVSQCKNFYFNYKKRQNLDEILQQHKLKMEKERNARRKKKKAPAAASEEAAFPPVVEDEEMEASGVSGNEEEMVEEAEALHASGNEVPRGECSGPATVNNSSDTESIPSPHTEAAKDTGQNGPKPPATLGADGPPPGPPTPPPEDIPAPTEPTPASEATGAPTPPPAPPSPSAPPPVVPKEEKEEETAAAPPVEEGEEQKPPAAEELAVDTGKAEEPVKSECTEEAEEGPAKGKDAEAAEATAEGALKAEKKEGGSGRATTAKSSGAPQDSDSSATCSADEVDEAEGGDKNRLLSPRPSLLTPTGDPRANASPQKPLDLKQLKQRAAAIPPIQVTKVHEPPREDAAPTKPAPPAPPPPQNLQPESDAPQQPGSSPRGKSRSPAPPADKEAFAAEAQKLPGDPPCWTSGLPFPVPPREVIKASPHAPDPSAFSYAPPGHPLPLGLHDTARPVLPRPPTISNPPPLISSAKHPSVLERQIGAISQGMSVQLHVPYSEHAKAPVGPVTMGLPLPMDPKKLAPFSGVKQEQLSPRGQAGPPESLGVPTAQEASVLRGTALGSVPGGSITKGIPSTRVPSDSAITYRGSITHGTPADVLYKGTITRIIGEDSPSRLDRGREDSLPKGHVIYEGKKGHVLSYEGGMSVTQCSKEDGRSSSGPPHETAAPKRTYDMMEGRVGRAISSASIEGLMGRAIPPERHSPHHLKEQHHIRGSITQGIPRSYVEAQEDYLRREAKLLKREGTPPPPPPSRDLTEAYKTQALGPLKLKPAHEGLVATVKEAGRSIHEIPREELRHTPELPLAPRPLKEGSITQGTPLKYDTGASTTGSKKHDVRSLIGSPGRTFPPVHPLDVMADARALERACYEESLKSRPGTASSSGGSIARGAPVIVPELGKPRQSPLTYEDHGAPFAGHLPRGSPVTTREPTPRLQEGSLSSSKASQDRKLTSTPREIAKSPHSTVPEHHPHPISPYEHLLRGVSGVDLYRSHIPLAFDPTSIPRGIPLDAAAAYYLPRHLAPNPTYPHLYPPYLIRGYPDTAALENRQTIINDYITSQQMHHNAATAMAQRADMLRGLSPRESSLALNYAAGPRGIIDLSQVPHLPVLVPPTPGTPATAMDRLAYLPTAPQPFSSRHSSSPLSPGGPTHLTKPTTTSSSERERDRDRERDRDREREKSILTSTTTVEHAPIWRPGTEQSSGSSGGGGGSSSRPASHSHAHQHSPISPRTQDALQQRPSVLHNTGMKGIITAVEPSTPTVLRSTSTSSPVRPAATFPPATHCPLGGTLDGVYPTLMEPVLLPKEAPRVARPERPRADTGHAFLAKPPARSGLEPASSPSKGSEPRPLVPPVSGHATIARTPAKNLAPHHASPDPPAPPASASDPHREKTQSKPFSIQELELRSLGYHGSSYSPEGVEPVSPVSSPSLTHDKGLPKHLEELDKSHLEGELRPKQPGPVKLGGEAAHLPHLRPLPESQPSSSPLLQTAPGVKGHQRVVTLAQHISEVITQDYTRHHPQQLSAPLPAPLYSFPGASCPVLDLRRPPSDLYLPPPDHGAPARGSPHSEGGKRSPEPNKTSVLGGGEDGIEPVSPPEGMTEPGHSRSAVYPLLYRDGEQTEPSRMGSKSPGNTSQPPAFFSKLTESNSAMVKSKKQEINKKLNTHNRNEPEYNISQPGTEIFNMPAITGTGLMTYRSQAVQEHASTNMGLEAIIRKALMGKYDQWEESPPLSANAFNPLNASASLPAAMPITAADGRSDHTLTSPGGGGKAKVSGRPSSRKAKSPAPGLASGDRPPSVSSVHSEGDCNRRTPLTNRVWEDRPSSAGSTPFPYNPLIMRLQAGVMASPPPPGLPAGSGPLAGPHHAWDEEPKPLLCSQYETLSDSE
Experiment: Inhibition of human recombinant C-terminal His-tagged HDAC3/NCOR2 using Boc-Lys-(epsilon-Ac)-AMC as fluorogenic substrate incubated for 90 mins by fluorescence based assay
pIC50: −log10 of the molar value.
quantity: pIC50

Reference set, count: 3
compound	pIC50
Nc1ccccc1NC(=O)c1ccc(CNc2ccccc2)cc1	6.22
Nc1ccccc1NC(=O)CCCCCC(=O)c1ccccc1	5.92
C[C@H](Nc1ccccc1)c1ccc(C(=O)Nc2ccccc2N)cc1	4.96

I = C[C@@H](Nc1ccccc1)c1ccc(C(=O)Nc2ccccc2N)cc1
II = Nc1ccccc1NC(=O)c1ccc(C(=O)Nc2ccccc2)cc1
Hi, I'm comparing I with II and wondering which one has the bigger number for pIC50. Any idea? Give the label under which the chosen entry appears. I
(I: 5.30, II: 4.80)

A = CC(Nc1ccccc1)c1ccc(C(=O)Nc2ccccc2N)cc1 (stereo not drawn)
B = CN(Cc1ccc(C(=O)Nc2ccccc2N)cc1)c1ccccc1
C = Nc1ccccc1NC(=O)CCCCCNc1ccccc1
Reorder: pIC50, max to min. Answer format: list of labels, ordered as asked. C, B, A

Measured values drawn from ChEMBL document CHEMBL4351000 for this set.
